experiment: Inhibition of CDK2/Cyclin A at 100 uM
Listing of recorded inhibition by entry.

MOLECULE: Nc1cccc(COc2nc(N)nc3[nH]cnc23)c1
QUANTITY_NAME: inhibition
RESULT: 52%
--
MOLECULE: CC(C)C(=O)COc1nc(N)nc2nc[nH]c12
QUANTITY_NAME: inhibition
RESULT: 31%
--
MOLECULE: Cc1cccc(COc2nc(N)nc3nc[nH]c23)c1
QUANTITY_NAME: inhibition
RESULT: 52%
--
MOLECULE: CC1(C)OC[C@@H](COc2nc(N)nc3[nH]cnc23)O1
QUANTITY_NAME: inhibition
RESULT: 39%

[Q] Give its inhibition value. Item: CC1(C)OCC(COc2nc(N)nc3[nH]cnc23)O1 (stereo not given)
[A] 36%
